What follows is literature data on pIC50 for PASK (Invitrogen) (Homo sapiens, UniProt Q96RG2).
pIC50: −log10 of the molar value.

The following molecules have reported results that may help.
## Input // fetch PASK (Invitrogen) (Homo sapiens, UniProt Q96RG2) pIC50 for "O=c1cc(Cc2ccccc2)[nH]c2c(-c3ccccc3)c(Cc3ccccc3)nn12"
## Output ≤ 5.00

## Input Form entry - test system: PASK (Invitrogen) (Homo sapiens, UniProt Q96RG2); read-out: pIC50; molecule: "Cc1nn2c(=O)cc(-c3ccc4c(c3)OCCO4)[nH]c2c1-c1ccccn1"
## Output ≥ 5.00

## Input Request body: readout pIC50, system PASK (Invitrogen) (Homo sapiens, UniProt Q96RG2), query "CC(C)N(C)c1nc2cc(C(=O)O)ccc2nc1-c1ccc(NC(=O)OC(C)(C)C)nc1" . Return the value.
## Output > 5.00

---
## Input Find pIC50 (PASK (Invitrogen) (Homo sapiens, UniProt Q96RG2)) for the entry "Cc1nn2c(=O)cc(-c3ccc4[nH]nnc4c3)[nH]c2c1-c1ccccc1"
## Output ≥ 5.00

## Input Quick check: pIC50 on PASK (Invitrogen) (Homo sapiens, UniProt Q96RG2), item "Cc1coc2ccc(-c3nc4ccc(C(=O)O)cc4nc3N(C)C(C)C)cc12" ?
## Output > 5.00

## Input // fetch PASK (Invitrogen) (Homo sapiens, UniProt Q96RG2) pIC50 for "C[C@H]1COCCN1c1nc2cc(C(=O)O)ccc2nc1-c1ccc2[nH]ccc2c1"
## Output > 5.00

## Input Look up pIC50 with PASK (Invitrogen) (Homo sapiens, UniProt Q96RG2) for this molecule: "CC(C)N(C)c1nc2cc(C(=O)O)ccc2nc1-c1nc2ccccc2s1"
## Output > 5.00

## Input Query pIC50 on PASK (Invitrogen) (Homo sapiens, UniProt Q96RG2) for "COc1ccccc1-c1cc(=O)n2ncc(-c3ccccn3)c2[nH]1"
## Output ≥ 5.00

## Input Notebook: pull reported pIC50 for PASK (Invitrogen) (Homo sapiens, UniProt Q96RG2), entry "COc1ccc(-c2nc3ccc(-c4nnn[nH]4)cc3nc2-c2ccc(OC)cc2)cc1"
## Output ≥ 5.00

## Input Fill in the recorded pIC50 for this molecule, with PASK (Invitrogen) (Homo sapiens, UniProt Q96RG2) as test system: "O=c1cc(-c2ccc3[nH]nnc3c2)[nH]c2c(Cc3ccccc3)c(O)nn12"
## Output ≥ 5.00

## Input Lookup: pIC50 / PASK (Invitrogen) (Homo sapiens, UniProt Q96RG2) / "COc1ccc(-c2cc(=O)n3nc(C)c(-c4ccccc4)c3[nH]2)cc1"
## Output ≥ 5.00

## Input Hi! What's the reported pIC50 for "CCc1coc(-c2cnn3c(=O)cc(-c4ccc5c(c4)OCO5)[nH]c23)n1" on PASK (Invitrogen) (Homo sapiens, UniProt Q96RG2)?
## Output ≥ 5.00

## Input API: value(readout= pIC50, system= PASK (Invitrogen) (Homo sapiens, UniProt Q96RG2), query= "O=C(O)c1ccc2nc(-c3ccc(F)cc3)c(N3CCCc4cc(C(=O)N5CCOCC5)ccc43)nc2c1" )
## Output ≥ 5.00
